- ASSAY SYSTEM: human DR5 (human)
- MEASUREMENT DESCRIPTION: SPR (BIAcore X100), human DR5 on CM5 chip, IgG injected, 1:1 Langmuir model
Listed here: items and their measured Kd.
ASSAY READOUT: Kd (nM)

| BINDER | RELATIONAL OPERATOR | READING |
| --- | --- | --- |
| DA31 (antibody, V domains shown) VH: AVTLDESGGGLQTPGGGLSLVCKGSGFTFSSFNMLWVRQAPGKGLEWVAGIGKSDRYTGYGSAVKGRATISRDDGQSTARLQMNSLRAEDTGTYYCVKDAGSGCGSGGWTGACIDTWGHGTEVIVSS VL: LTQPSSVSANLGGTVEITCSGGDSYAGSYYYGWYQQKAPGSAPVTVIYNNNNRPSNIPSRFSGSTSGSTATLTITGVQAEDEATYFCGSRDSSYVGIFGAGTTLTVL | = | 0.0706 |
| DA8 (antibody, V domains shown) VH: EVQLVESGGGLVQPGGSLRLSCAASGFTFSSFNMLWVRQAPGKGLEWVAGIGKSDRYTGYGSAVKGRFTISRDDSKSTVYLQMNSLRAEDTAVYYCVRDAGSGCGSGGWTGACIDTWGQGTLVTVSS VL: DIQMTQSPSSLSASVGDRVTITCSGGDSYAGSYYYGWYQQKPGKAPKTLIYNNNNRPSGVPSRFSGSGSGTDFTLTISSLQPEDFATYYCGSRDSSYVGIFGQGTKVEIK | < | 0.00625 |
| D0 (antibody, V domains shown) VH: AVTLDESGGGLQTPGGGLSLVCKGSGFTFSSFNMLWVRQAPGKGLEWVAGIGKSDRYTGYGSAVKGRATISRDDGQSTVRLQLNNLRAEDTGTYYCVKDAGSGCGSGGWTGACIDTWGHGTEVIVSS VL: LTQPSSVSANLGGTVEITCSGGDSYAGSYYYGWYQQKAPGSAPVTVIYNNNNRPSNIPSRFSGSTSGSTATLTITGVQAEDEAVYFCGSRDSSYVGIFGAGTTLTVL | = | 0.0152 |
